Species: Rattus norvegicus
Assay: Positive allosteric modulation of AMPA receptor in Sprague-Dawley rat embryonic hippocampal neuron assessed as concentration required to double the steady-state glutamate-induced current by patch-clamp assay
Conditions: Hippocampus
Recorded Metric: CD (µM)

As a guide, the following entries are already answered.
C#CCn1nnc2cc3c(=O)n([C@H](C)Cn4ncnn4)cnc3cc2c1=O; 0.5
C[C@H](Cn1cnnn1)n1nnc2cc3c(=O)n(C)nnc3cc2c1=O; 0.08
C[C@H](Cn1ccnn1)n1nnc2cc3c(=O)n(C)nnc3cc2c1=O; 0.09
C[C@H](Cn1ccnn1)n1nnc2cc3c(=O)n([C@H](C)Cn4ccnn4)nnc3cc2c1=O; 0.06
C[C@H](Cn1cccn1)n1cnc2cc3c(=O)n([C@H](C)Cn4cccn4)cnc3cc2c1=O; 0.09

P. C[C@H](Cn1cnnn1)n1nnc2cc3c(=O)n(C4CC4)nnc3cc2c1=O
Q. CCn1nnc2cc3c(=O)n([C@H](C)Cn4ncnn4)nnc3cc2c1=O
R. C[C@H](Cn1ncnn1)n1cnc2cc3c(=O)n(C4CC4)nnc3cc2c1=O
S. C[C@H](Cn1ncnn1)n1nnc2cc3c(=O)n([C@H](C)Cn4ncnn4)nnc3cc2c1=O
T. C[C@H](Cn1ncnn1)n1cnc2cc3c(=O)n([C@H](C)Cn4ncnn4)nnc3cc2c1=O
// sort entries: CD, high to low // respond by listing labels in the order requested
R, Q, P, S, T

* * *

Species on record: Rattus norvegicus
Assay: Positive allosteric modulation of AMPA receptor in Sprague-Dawley rat embryonic hippocampal neuron assessed as concentration required to double the steady-state glutamate-induced current by patch-clamp assay
Conditions: Hippocampus
Recorded Metric: CD (µM)

C[C@H](Cn1nccn1)n1nnc2cc3c(=O)n(C4CC4)nnc3cc2c1=O; 1.3

1. C[C@H](Cn1cnnn1)n1cnc2cc3c(=O)n(C4CC4)nnc3cc2c1=O
2. C[C@H](Cn1cncn1)n1nnc2cc3c(=O)n(C4CC4)nnc3cc2c1=O
3. C[C@H](Cn1ncnn1)n1nnc2cc3c(=O)n(C)nnc3cc2c1=O
4. C[C@H](Cn1ncnn1)n1cnc2cc3c(=O)n([C@H](C)Cn4ncnn4)cnc3cc2c1=O
In this exercise, place the 4 molecules in ascending sequence of their recorded CD. // respond by listing labels in the order requested
4, 1, 3, 2
(4: 0.03 µM, 1: 0.07 µM, 3: 0.28 µM, 2: 1.1 µM)

* * *

Species on record: Rattus norvegicus
Experiment: Positive allosteric modulation of AMPA receptor in Sprague-Dawley rat embryonic hippocampal neuron assessed as concentration required to double the steady-state glutamate-induced current by patch-clamp assay
Details: Hippocampus
Recorded Metric: CD (µM)

C#C[C@H](Cc1cccc(F)c1)n1nnc2cc3c(=O)n(C4CC4)nnc3cc2c1=O; 0.45

P. C[C@H](Cn1nccn1)n1nnc2cc3c(=O)n([C@H](C)Cn4nccn4)nnc3cc2c1=O
Q. C[C@H](Cn1ncnn1)n1nnc2cc3c(=O)n(C4CC4)cnc3cc2c1=O
R. C[C@H](Cn1ncnn1)n1cnc2cc3c(=O)n([C@H](C)Cn4cnnn4)nnc3cc2c1=O
S. C[C@H](Cn1nccn1)n1nnc2cc3c(=O)n(C)nnc3cc2c1=O
In this exercise, place the 4 molecules in ascending sequence of their recorded CD. // respond by listing labels in the order requested
R, P, Q, S

* * *

Test: Oral bioavailability in cynomolgus monkey
Assay type: ADME, organism-based, Macaca fascicularis
Conditions: in vivo
Recorded Metric: bioavailability (%)
Write the number in % without appending the unit.

Fill in the blank: the reported bioavailability of "C[C@H](Cn1ncnn1)n1nnc2cc3c(=O)n(C4CC4)nnc3cc2c1=O" is ____.
100
